Listing of recorded melting point by entry.

For orientation, consider the following solved cases.
>>> print(df.to_string())
                                   compound  observation_type    test_result
0  CC1=C(/C=C(\C)C(=O)O)C(=O)c2ccccc2C1=O [Compound 35a]     melting point  195 to 196 °C
1  O=C(O)CCCC[C@H]1[C@H]2NC(=O)N[C@H]2CS1(=O)=O     melting point         255 °C
2  C/C(=C\C1=C(Cl)C(=O)c2ccccc2C1=O)C(=O)O [Compound 43a]     melting point  229 to 230 °C
3  COCC/C(=C\C1=C(Cl)C(=O)c2ccccc2C1=O)C(=O)O [Compound 62c]     melting point  160 °C (dec.)
4  CCC/C(=C\C1=C(C)C(=O)C(OC)=C(OC)C1=O)C(=O)O [Compound 10d]     melting point    95 to 99 °C

Record request: melting point value, item CC(C)(C)OC(=O)NCCCCCCNC(=O)CCCC[C@H]1[C@H]2NC(=O)N[C@H]2CS1(=O)=O
213 to 215 °C

What do we get for C/C(=C/C1=C(Cl)C(=O)c2ccccc2C1=O)C(=O)O [Compound Z-43a] ?
166 to 169 °C

What do we get for O=C(O)CCC1=C(Br)C(=O)c2ccccc2C1=O [Compound 69a] ?
156 to 157 °C

What do we get for CCCC/C(=C\C1=C(C)C(=O)c2ccccc2C1=O)C(=O)O [Compound 35b] ?
119 to 121 °C

What do we get for COCC/C(=C\C1=C(Br)C(=O)c2ccccc2C1=O)C(=O)O [Compound 62b] ?
168 to 172 °C

What do we get for COC1=C(OC)C(=O)C(/C=C(\C)C(=O)O)=C(C)C1=O [Compound 10b] ?
134 to 136 °C

What do we get for CCC/C(=C\C1=CC(=O)c2ccccc2C1=O)C(=O)O [Compound 30b] ?
156 to 160 °C

What do we get for COCC/C(=C\C1=C(C)C(=O)C(OC)=C(OC)C1=O)C(=O)O ?
104 to 106 °C

What do we get for CC/C(=C\C1=C(C)C(=O)C(OC)=C(OC)C1=O)C(=O)O [Compound 10c] ?
124 to 131 °C

What do we get for CCCC/C(=C\C1=C(C)C(=O)C(OC)=C(OC)C1=O)C(=O)O [Compound 10e] ?
54 to 55 °C

What do we get for COC1=C(/C=C(\C)C(=O)O)C(=O)c2ccccc2C1=O ?
205 °C (dec.)

What do we get for COC1=C(OC)C(=O)C(/C=C(\C)C(=O)O)=C(Cl)C1=O ?
183 to 185 °C

What do we get for C[C@@H]1NC(=O)N[C@@H]1CCCCCC(=O)NCCCCCCNC(=O)OC(C)(C)C (hydrate or solvate) ?
85 to 87 °C

What do we get for CSC1=C(/C=C(\C)C(=O)O)C(=O)c2ccccc2C1=O ?
195 to 196 °C

What do we get for CCC/C(=C\C1=C(Cl)C(=O)c2ccccc2C1=O)C(=O)O [Compound 43b] ?
164 °C (dec.)

What do we get for COCC/C(=C\C1=C(C)C(=O)c2ccccc2C1=O)C(=O)O [Compound 62a] ?
147 to 148 °C

What do we get for CCCCCCCCC/C(=C\C1=C(C)C(=O)c2ccccc2C1=O)C(=O)O [Compound 35c] ?
64 to 66 °C

What do we get for CCC/C(=C\C1=C(Br)C(=O)c2ccccc2C1=O)C(=O)O [Compound 39b] ?
145 °C (dec.)

====

Notes on IC50 obtained with Ape1 (Homo sapiens).
Sequence (P27695 whole entry): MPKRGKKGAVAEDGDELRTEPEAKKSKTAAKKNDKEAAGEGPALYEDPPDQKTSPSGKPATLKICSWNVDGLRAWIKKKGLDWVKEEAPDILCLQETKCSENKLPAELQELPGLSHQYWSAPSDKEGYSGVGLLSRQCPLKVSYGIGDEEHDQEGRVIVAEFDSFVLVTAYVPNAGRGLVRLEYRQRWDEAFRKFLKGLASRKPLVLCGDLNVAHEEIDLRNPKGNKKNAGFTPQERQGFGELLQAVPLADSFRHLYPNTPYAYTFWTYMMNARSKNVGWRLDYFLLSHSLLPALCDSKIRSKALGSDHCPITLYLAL
Reply with just the number (in µM).

For orientation, consider the following solved cases.
>>> df
                                   compound  observation_type  value_units  test_result
0  COC(=O)/C(C)=C\C1=C(Cl)C(=O)c2ccccc2C1=O [Compound Z-44a]              IC50           µM            2
1  CC1=C(/C=C(\C)C(=O)O)C(=O)c2ccccc2C1=O [Compound 35a]              IC50           µM           15
2   CSC1=C(/C=C(\C)C(=O)O)C(=O)c2ccccc2C1=O              IC50           µM            1
3  C/C(=C\C1=CC(=O)c2ccccc2C1=O)C(=O)O [Compound 30a]              IC50           µM          2.5
4  C/C(=C/C1=C(Cl)C(=O)c2ccccc2C1=O)C(=O)O [Compound Z-43a]              IC50           µM          1.5

Record request: IC50 value, item CCCC/C(=C\C1=C(C)C(=O)c2ccccc2C1=O)C(=O)O [Compound 35b]
25

What do we get for CC(CC1=C(Br)C(=O)c2ccccc2C1=O)C(=O)O (racemic) [Compound 69b] ?
5

What do we get for COC(=O)/C(C)=C/C1=C(Cl)C(=O)c2ccccc2C1=O [Compound E-44a] ?
1

What do we get for COCC/C(=C\C1=C(Br)C(=O)c2ccccc2C1=O)C(=O)O [Compound 62b] ?
0.5

What do we get for COC1=C(OC)C(=O)C(/C=C(\C)C(=O)O)=C(Cl)C1=O ?
2.5

What do we get for CCCCCCCCC/C(=C\C1=C(C)C(=O)C(OC)=C(OC)C1=O)C(=O)NCCO ?
10

What do we get for CC1(C(=O)O)OC1C1=C(Cl)C(=O)c2ccccc2C1=O (mixture of isomers) ?
4

What do we get for C/C(=C\C1=C(Cl)C(=O)c2ccccc2C1=O)C(=O)O [Compound 43a] ?
1

What do we get for COCC/C(=C\C1=C(C)C(=O)C(OC)=C(OC)C1=O)C(=O)O ?
10

What do we get for C/C(=C\C1=C(Br)C(=O)c2ccccc2C1=O)C(=O)O [Compound 39a] ?
2

What do we get for COCC/C(=C\C1=C(C)C(=O)c2ccccc2C1=O)C(=O)O [Compound 62a] ?
10

What do we get for C/C(=C\C1=C(F)C(=O)c2ccccc2C1=O)C(=O)O ?
4

What do we get for COCC/C(=C\C1=C(Cl)C(=O)c2ccccc2C1=O)C(=O)O [Compound 62c] ?
3

What do we get for O=C(O)CCC1=C(Br)C(=O)c2ccccc2C1=O [Compound 69a] ?
5

What do we get for COC1=C(OC)C(=O)C(/C=C/C(=O)O)=C(C)C1=O [Compound 10a] ?
40

What do we get for COC1=C(/C=C(\C)C(=O)O)C(=O)c2ccccc2C1=O ?
0.5
